- assay.system: T1, soluble human BLyS (human, UniProt Q9Y275 134-285)
- T1 construct: also called hBLyS; human BAFF (BLyS)
- measurement.notes: Biacore T100, binder captured by anti-human Fc, BLyS injected, 1:1 model
experimental.endpoint: kon (M⁻¹ s⁻¹)
All answers are understood in M⁻¹ s⁻¹, so give the number only.

// query Data request, read-out kon, for mouse TACI (R&D Systems receptor chimera) (receptor, UniProt Q9ET35 2-129, looked up, not shown: a dimerising Fc or GST, also called mTACI; TACI rec Mouse) AMAFCPKDQYWDSSRKSCVSCALTCSQRSQRTCTDFCKFINCRKEQGRYYDHLLGACVSCDSTCTQHPQQCAHFCEKRPRSQANLQPELGRPQAGEVEVRSDNSGRHQGSEHGPGLRLSSDQLTLYCT
// result 397000
